Parameter: IC50. Scope: all listed entries.
EXPERIMENTAL TARGET: MEK1 activated ERK1 (Homo sapiens)
Construct: purchased Millipore (Billerica, Mass.) 14-439-K
TEST METHOD NOTES: Omnia continuous-read kinase assay for potency against MEK1 activated ERK1
Type: biochemical
CONDITION PARAMETERS: MEK1 activated ERK1, ATP at KM; read-out: ERK1 Omnia WT ATP KM IC50
Source text: Omnia Assay Protocol for Potency Assessment Against MEK1 Activated ERK1: The protocol below describes continuous-read kinase assays to measure potency of compounds against activated ERK1 enzyme. The mechanics of the assay platform are best described by the vendor (Invitrogen, Carlsbad, Calif.) on their website at the following URL: invitrogen.com/site/us/en/home.html. […]
EXPERIMENTAL ENDPOINT: IC50

INSERT INTO measurements (compound, recorded_result) VALUES
  ('C=CC(=O)N[C@@H]1CCCC[C@H]1Nc1nc(Nc2cc(C(=O)NOC)ccc2C)ncc1Cl (racemic) [Compound I-188]', '> 1000 nM'),
  ('C=CC(=O)Nc1ccccc1Nc1nc(Nc2cc(C(=O)NOCCO)ccc2OC)ncc1C(F)(F)F [Compound I-74]', '101 to 500 nM'),
  ('C=CC(=O)Nc1ccccc1Nc1nc(N[C@@H]2CCC[C@H](C(N)=O)C2)ncc1C(F)(F)F (racemic) [Compound I-2]', '< 100 nM'),
  ('C=CC(=O)N(C)c1ccccc1Nc1nc(N[C@@H]2CCC[C@H](C(=O)NOC)C2)ncc1Cl (racemic) [Compound I-106]', '> 1000 nM'),
  ('C=CC(=O)Nc1ccccc1Nc1nc(Nc2cc(C(N)=O)ccc2C(F)(F)F)ncc1Cl [Compound I-220]', '101 to 500 nM'),
  ('C=CC(=O)Nc1ccccc1Oc1nc(Nc2ccc(N3CCC[C@@H]3CO)cc2OC)ncc1C(N)=O [Compound I-263]', '101 to 500 nM'),
  ('C=CC(=O)Nc1ccccc1Nc1nc(N[C@H]2CCN(C(C)=O)C2)ncc1C(F)(F)F [Compound I-56]', '101 to 500 nM'),
  ('C#CC(=O)NCCCOc1cc(C)c(Nc2ncc(Cl)c(Nc3ccccc3NC(=O)C=C)n2)cc1C(N)=O [Compound I-227]', '101 to 500 nM'),
  ('C=CC(=O)Nc1ccccc1Nc1nc(N[C@H]2CCCNC2)ncc1Cl [Compound I-126]', '101 to 500 nM'),
  ('C=CC(=O)Nc1ccccc1Nc1nc(N[C@H]2CC[C@@H](O)CC2)ncc1C(F)(F)F [Compound I-109]', '501 to 999 nM'),
  ('C=CC(=O)Nc1ccccc1Nc1nc(Nc2ccc(NC(=O)CO)cc2OC)ncc1Cl [Compound I-186]', '101 to 500 nM'),
  ('C=CC(=O)Nc1ccccc1Nc1nc(Nc2ccc(N(CCCNC(=O)OC(C)(C)C)C(C)=O)cc2OC)ncc1Cl [Compound I-173]', '501 to 999 nM'),
  ('C=CC(=O)Nc1cc(C)ccc1Nc1nc(Nc2cc(C(N)=O)ccn2)ncc1Cl [Compound I-238]', '101 to 500 nM'),
  ('C=CC(=O)Nc1cc(F)ccc1Nc1nc(N[C@@H]2CCC[C@H](C(N)=O)C2)ncc1C(F)(F)F (racemic) [Compound I-5]', '< 100 nM'),
  ('C=CC(=O)Nc1ccccc1Nc1nc(Nc2cc(C(=O)NOCCO)ccc2C#N)ncc1Cl [Compound I-202]', '101 to 500 nM'),
  ('C=CC(=O)Nc1ccccc1Nc1nc(N[C@H]2CCCN(C(=O)C(C)=O)C2)ncc1C(F)(F)F [Compound I-49]', '501 to 999 nM'),
  ('C=CC(=O)N[C@@H]1CCCC[C@H]1Nc1nc(Nc2cc(C(N)=O)ccc2C)ncc1C(N)=O (racemic) [Compound I-255]', '> 1000 nM'),
  ('C=CC(=O)Nc1cc(C)ccc1Nc1nc(Nc2cc(OC)nc(N(C)C3CC3)c2)ncc1C(F)(F)F [Compound I-342]', '501 to 999 nM'),
  ('C=CC(=O)N[C@@H]1CCCC[C@H]1Nc1nc(Nc2cc(C(=O)NOCCO)ccc2C)ncc1C(N)=O (racemic) [Compound I-257]', '> 1000 nM'),
  ('C=CC(=O)Nc1ccccc1Nc1nc(Nc2ccc(NC(=O)COC(C)=O)cc2OC)ncc1Cl [Compound I-183]', '101 to 500 nM'),
  ('C=CC(=O)Nc1cc(OC)ccc1Nc1nc(Nc2ccc(N(CC)C(C)=O)cc2C(F)(F)F)ncc1Cl [Compound I-176]', '501 to 999 nM'),
  ('O=C(CCl)N[C@@H]1CCCC[C@H]1Nc1nc(N[C@H]2CCCN(C(=O)CO)C2)ncc1C(F)(F)F [Compound I-35]', '101 to 500 nM'),
  ('C=CC(=O)Nc1ccccc1Nc1nc(Nc2ccc(N(CCN)C(C)=O)cc2OC)ncc1Cl [Compound I-168]', '101 to 500 nM');

----------
Test system: ERK1/2 phosphorylation of p90RSK in HCT116 cells
TEST METHOD NOTES: Detection of total and phospho-RSK by MSD ELISA (HCT116)
Type: cell-based
CONDITION PARAMETERS: Homo sapiens, HCT-116, read-out: ERK1/ERK2 PRSK HCT116 EC50
pEC50: −log10 of the molar value.
Parameter: pEC50. Scope: all listed entries.
EXPERIMENTAL ENDPOINT: pEC50

INSERT INTO assay_data (compound, recorded_result) VALUES
  ('C=CC(=O)Nc1cc(C)ccc1Nc1nc(Nc2cc(OC)nc(N3CCC3)c2)ncc1C(F)(F)F [Compound I-329]', '6.30 to 7.00'),
  ('C=CC(=O)Nc1ccccc1Nc1nc(Nc2ccnnc2)ncc1C(F)(F)F [Compound I-293]', '> 7.00'),
  ('C=CC(=O)Nc1cc(OCCN2CCN(C(C)=O)CC2)ccc1Nc1nc(Nc2cc(OC)ncc2C)ncc1C(F)(F)F [Compound I-416]', '6.30 to 7.00'),
  ('C=CC(=O)Nc1ccccc1Nc1nc(Nc2cc(OC)ncc2C)ncc1C(F)(F)F [Compound I-85]', '> 7.00'),
  ('C=CC(=O)Nc1ccccc1Nc1nc(Nc2cc(OC)nc(N3CCN(C)CC3)c2)ncc1C(F)(F)F [Compound I-324]', '> 7.00'),
  ('C=CC(=O)Nc1cc(C)ccc1Nc1nc(N[C@H]2CCCN(S(=O)(=O)C=C)C2)ncc1C(F)(F)F [Compound I-277]', '< 6.00'),
  ('C=CC(=O)Nc1cc(C)ccc1Nc1nc(Nc2cc(C)nc(OC)c2)ncc1C(F)(F)F [Compound I-295]', '> 7.00');

----------
EXPERIMENTAL TARGET: MEK1 activated ERK1 (Homo sapiens, UniProt P27361)
Construct: purchased Millipore (Billerica, Mass.) 14-439-K
Sequence (P27361 whole entry): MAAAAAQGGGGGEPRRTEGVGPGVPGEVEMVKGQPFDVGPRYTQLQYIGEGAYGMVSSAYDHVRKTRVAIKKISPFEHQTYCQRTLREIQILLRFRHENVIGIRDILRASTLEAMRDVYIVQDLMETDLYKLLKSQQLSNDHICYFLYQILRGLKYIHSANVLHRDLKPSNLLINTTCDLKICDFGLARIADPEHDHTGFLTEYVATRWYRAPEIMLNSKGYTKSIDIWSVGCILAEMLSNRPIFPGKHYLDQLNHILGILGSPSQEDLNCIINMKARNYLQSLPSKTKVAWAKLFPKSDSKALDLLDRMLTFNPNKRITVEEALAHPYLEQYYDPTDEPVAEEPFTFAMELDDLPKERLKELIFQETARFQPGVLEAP
TEST METHOD NOTES: Omnia continuous-read kinase assay for potency against MEK1 activated ERK1
Assay type: biochemical
CONDITION PARAMETERS: MEK1 activated ERK1, ATP at KM; read-out: ERK1 Omnia WT ATP KM IC50
EXPERIMENTAL ENDPOINT: IC50

INSERT INTO measurements (compound, experimental_endpoint, recorded_result) VALUES
  ('C=CC(=O)Nc1ccccc1Nc1nc(N[C@H]2CC[C@H](OC)CC2)ncc1Cl [Compound I-100]', 'IC50', '101 to 500 nM'),
  ('C=CC(=O)Nc1ccccc1Nc1nc(N[C@H]2CC[C@H](C(N)=O)CC2)ncc1C(F)(F)F [Compound I-16]', 'IC50', '101 to 500 nM'),
  ('C=CC(=O)Nc1cc(C)ccc1Nc1nc(Nc2cc(OC)nc(N3CCN(CC)CC3)c2)ncc1C(F)(F)F [Compound I-89]', 'IC50', '101 to 500 nM'),
  ('C=CC(=O)Nc1ccccc1Nc1nc(Nc2cc(OC)cc(OC)c2)ncc1C(F)(F)F [Compound I-338]', 'IC50', '101 to 500 nM'),
  ('O=C(CCl)Nc1ccccc1Nc1nc(N[C@H]2CCCN(C(=O)CCl)C2)ncc1C(F)(F)F [Compound I-31]', 'IC50', '501 to 999 nM'),
  ('C=CC(=O)Nc1ccccc1Nc1nc(NC2CCN(C=O)CC2)ncc1C(F)(F)F [Compound I-11]', 'IC50', '101 to 500 nM'),
  ('C=CC(=O)N[C@@H]1CCCC[C@H]1Oc1nc(Nc2cc(C(=O)NOC)ccc2C)ncc1C(N)=O (racemic) [Compound I-269]', 'IC50', '> 1000 nM'),
  ('C=CC(=O)Nc1cc(OC)ccc1Nc1nc(Nc2ccc(N3CCC[C@@H]3C(N)=O)cc2C#N)ncc1Cl [Compound I-180]', 'IC50', '501 to 999 nM'),
  ('C=CC(=O)Nc1ccccc1Nc1nc(N[C@@H]2CCN(C(C)=O)C2)ncc1C(F)(F)F [Compound I-60]', 'IC50', '501 to 999 nM'),
  ('C=CC(=O)Nc1cc(OC)ccc1Nc1nc(Nc2ccc(N3CCC[C@H]3C(N)=O)cc2C#N)ncc1Cl [Compound I-178]', 'IC50', '101 to 500 nM'),
  ('C=CC(=O)Nc1cc(OC)ccc1Nc1nc(Nc2ccc(N(CC)C(C)=O)cc2C#N)ncc1Cl [Compound I-164]', 'IC50', '101 to 500 nM'),
  ('C=CC(=O)Nc1cc(C)ccc1Nc1nc(Nc2cc(C(C)=O)ccc2C)ncc1C(F)(F)F [Compound I-84]', 'IC50', '101 to 500 nM');
